# Tested on: SK-MEL-28
# Measurement description: NCI tumour cell line growth inhibition, 48 h
Activity calls are given as the source filed them. Cut-off read from the data, not from the text of the source: active = GI50 up to about 1.1 µM and inactive = higher.
Your response should consist of one outcome taken from True = active, False = inactive

Here's what some known entries look like.
>>> df
                                   molecule  label_class
0  COc1cc(C2c3[nH]c4ccccc4c3C[C@H]3COC(=O)N23)cc(OC)c1OC (stereo not given in full)         True
1  Cc1nc2ccccc2n1Cc1ccc(NC(=S)NC2CCCCC2)cc1        False
2  CC(CC(N)C(=O)O)C(=O)O (stereo not given)        False
3  COc1ccc2c(c1)C1C(CO2)C(c2ccccc2)=NN1c1ccccc1 (stereo not given)        False
4  CCNCC(=O)O[C@]1(CC)C(=O)OCc2c1cc1n(c2=O)Cc2cc3ccccc3nc2-1        False

Any idea what this test logged for CC(C)OP(=O)(OC(C)C)c1c(N)n[nH]c1Nc1ccccc1 ?
False

Now consider Cc1ccccc1/N=N/C(C(=O)c1ccccc1)C(=O)c1ccccc1 .
False

Now consider COc1ccc(-c2cc(-c3ccc(Cl)cc3)n(C3OC(CO)C(O)C(O)C3O)c(=S)c2C#N)cc1 (stereo not given) .
False

###

# Tested on: A549
# Measurement description: NCI tumour cell line growth inhibition, 48 h
Active and inactive are the calls of the source. Rule as the data show it: active = GI50 up to about 1.1 µM and inactive = higher.
Your response should consist of one outcome taken from 1.0 = active, 0.0 = inactive

Here's what some known entries look like.
In [3]: df
Out[3]:
                                   molecule  label_class
0  COc1ccc(N2C(=O)C3c4[nH]c5ccccc5c4C4CCCCCCCCCC4C3C2=O)cc1 (stereo unspecified)          0.0
1  Cc1ccc(N)cc1.O=S(=O)(O)/C(=C\c1ccccc1)c1ccccc1          0.0
2  COC1C(O)C(C)OC(OC2C(Oc3cccc4c(O)c5c(=O)oc6ccc(C)c7c(=O)oc(c34)c5c67)OC(C)C(O)C2O)C1O (stereo unspecified)          0.0
3  C=CC[C@]1(C2=NC(C)(C)CO2)c2ccccc2-c2ccccc2[C@H]1C(C)=O          0.0
4  COC(=O)NC(Nc1ccc(Cl)cc1Cl)(C(F)(F)F)C(F)(F)F          0.0
5  Nn1c(Nc2ccc(S(=O)(=O)Nc3ncccn3)cc2)nnc(/C=C/c2c(O)ccc3ccccc23)c1=O          0.0

Shift focus to the following entry.
Any idea what this test logged for C[C@]12CCC(=O)C=C1CC[C@@H]1[C@@H]2[C@@H](O)C[C@@]2(C)[C@H]1CC[C@]2(O)C(=O)COC(=O)CCC1CCCC1 [HYDROCORTISONE CYPIONATE] ?
0.0

###

# Tested on: SNB-19
# Measurement description: NCI tumour cell line growth inhibition, 48 h
Calls of active or inactive are those of the source. Cut-off read from the data, not from the text of the source: active = GI50 up to about 1.1 µM and inactive = higher.
Readout name: GI50

# annotated cases, reported GI50 shown
>>> print(df.to_string())
                                   compound              reading
0  COc1c(O)c(O)cc2c1-c1ccc(OC)c(=O)cc1C(NC(C)=O)CC2 (stereo not drawn)   5.51 µM (inactive)
1  Cc1nc2ccccc2n1Cc1ccc(NC(=S)NC2CCCCC2)cc1   32.8 µM (inactive)
2  CC1(O)CC23CC(O)C4(O)C(CC(O)C4(C)C)C(C)(O)C2CCC1C3O (stereo not drawn)  > 100 µM (inactive)

Item under review: NC(=O)c1cccc([N+](=O)[O-])c1 . Reported GI50?
> 100 µM (inactive)

###

# Tested on: COLO 205
# Measurement description: NCI tumour cell line growth inhibition, 48 h
The source made the active and inactive calls. No stated cut-off is given here; in the data, active = GI50 up to about 1.1 µM and inactive = higher.
Your response should consist of one outcome taken from true for active, false for inactive

Here's what some known entries look like.
Molecule	Measured on	Label class
C/C=C/[C@H]1O[C@@](O)([C@@H](C)[C@H](O)[C@H](C)[C@H]2OC(=O)/C(OC)=C/C(C)=C/[C@@H](C)[C@@H](O)[C@@H](CC)[C@@H](O)[C@H](C)C/C(C)=C/C=C/[C@@H]2OC)C[C@H](OC2CC(O)C(OC(N)=O)C(C)O2)[C@@H]1C (stereo not given in full)	COLO 205	true
COC(=O)C(COC(=O)/C=C/c1ccc(OC(C)=O)c(OC(C)=O)c1)NC(=O)/C=C/c1ccc(OC(C)=O)c(OC(C)=O)c1 (stereo not given)	COLO 205	false

Any idea what this test logged for O=C1NC(=S)NC(=O)C1=CC1CC1 ?
false

Now consider C=CCN(C(=O)CNC(=O)C(F)(F)F)c1cc(OCc2ccccc2)c2c(c1)c(C)cn2S(=O)(=O)c1ccccc1 .
false

Now consider CCOc1cc(NC(C)=O)ccc1C(=O)NN1C(=O)C(Cl)C1c1ccccc1 (stereo not given) .
false

Now consider Oc1ccc(SCc2ccc(NCc3ccccc3)cc2)cc1 .
false

Now consider O=c1ss/c(=N\c2ccccc2)n1-c1ccccc1 .
false

Now consider O=C1c2c(O)cccc2Cc2cc(CO)cc(O)c21 .
false

Now consider Cc1ccc(C(=N)c2ccccc2Cc2cccc3ccccc23)c2ccccc12 .
false

Now consider COc1cc(C2c3[nH]c4ccccc4c3C[C@H]3COC(=O)N23)cc(OC)c1OC (stereo not given in full) .
true

###

Each entry below carries its recorded GI50.
# Test system: 786-0
# Measurement description: NCI tumour cell line growth inhibition, 48 h
Calls of active or inactive are those of the source. Rule as the data show it: active = GI50 up to about 1.1 µM and inactive = higher.

Compound	Reading
COC(=O)C(CCCCN)NC(=O)C(CCCCN)NC(C)=O.Cc1ccc(C(=O)Nc2ccc(S(=O)(=O)O)c3cc(S(=O)(=O)O)cc(S(=O)(=O)O)c23)cc1NC(=O)c1cccc(NC(=O)Nc2cccc(C(=O)Nc3cc(C(=O)Nc4ccc(S(=O)(=O)O)c5cc(S(=O)(=O)O)cc(S(=O)(=O)O)c45)ccc3C)c2)c1	> 50 µM (inactive)
COc1ccc(/C=N/n2c(C)n[nH]c2=O)cc1	> 100 µM (inactive)
O=c1c2cc([N+](=O)[O-])cnc2sn1-c1ccc(Oc2ccccc2)cc1	43.5 µM (inactive)

Item under review: O=C(C(O)c1cn(Cc2ccccc2)c2ccccc12)N1CCCCC1 (stereo not drawn) . Reported GI50?
> 100 µM (inactive)

Now consider CN(CCNC(=O)c1cn(C)c2c1ccc1cc(Cl)ccc12)CCNC(=O)c1cn(C)c2c1ccc1cc(Cl)ccc12 .
1.99 µM (inactive)

Now consider OC1(c2ccc3ccccc3c2)c2ccc3ccccc3c2C2=NCCN21 (stereo not drawn) .
24.8 µM (inactive)

Now consider COc1ccccc1/C=C(\NC(=O)c1ccccc1)c1nc2ccc(Cl)cc2[nH]1 .
27.4 µM (inactive)

Now consider O=C1/C(=C/c2ccccc2)CCCC1CN1CCCCC1 (stereo not drawn) .
1.87 µM (inactive)

###

# Tested on: SK-MEL-28
# Measurement description: NCI tumour cell line growth inhibition, 48 h
The source made the active and inactive calls. No stated cut-off is given here; in the data, active = GI50 up to about 1.1 µM and inactive = higher.
Your response should consist of one outcome taken from label 1 for active, label 0 for inactive

Here's what some known entries look like.
In [3]: df
Out[3]:
                                   molecule  label_class
0  Cc1cn([C@@H]2O[C@H](CO[Si](C)(C)C(C)(C)C)[C@]3(O[C@H]3C(=O)NN)[C@H]2O[Si](C)(C)C(C)(C)C)c(=O)[nH]c1=O      label 0
1  CCOn1cc(C[C@@]2(O)C(=O)OC3[C@@H](O)CO[C@@]32O)c2ccccc21 (some centres not stated)      label 0

Any idea what this test logged for Cc1ccc(C(=O)C(C)N)cc1C (configuration not stated) ?
label 0

Now consider C[C@]12C=CC(=O)C=C1CC[C@@H]1[C@@H]2CC[C@@]2(C)[C@H]1CC[C@]2(O)C(N)=O .
label 0

Now consider O=C(Cc1cc[n+]([O-])cc1)C(=O)Nc1cc(Cl)c(Cl)cc1Cl .
label 0

Now consider CC(=O)OC1CC2C(C)(C)C(=O)C=C[C@]2(C)C2CCC3(C)C(=CC(=O)C3c3ccoc3)[C@]12C (some centres not stated) .
label 0

Now consider NN/C(=N\S(=O)(=O)c1cc2ccccc2o1)Nc1ccc(Cl)cc1 .
label 0

Now consider O=C1CC2C=CC(O)C(C1)C2 (configuration not stated) .
label 0

Now consider N#Cc1ccc2cc3c(cc2c1)OCO3 .
label 0

Now consider CCCCOCn1c(=O)[nH]c(=O)c2cc(Br)ccc21 .
label 0

Now consider O=P(NCCCO)(OCc1ccccc1)N(CCCl)CCCl (configuration not stated) .
label 0

Now consider O=C(C(O)c1cn(Cc2ccccc2)c2ccccc12)N1CCCCC1 (configuration not stated) .
label 0

Now consider NC(=O)c1cccc([N+](=O)[O-])c1 .
label 0

Now consider CCCCCCCCCC1CC(=O)OC23CCCC(=O)C12O3 (configuration not stated) .
label 0

Now consider O=C(Nc1cccs1)c1c(O)[nH]c(=S)[nH]c1=O .
label 0

Now consider O=C1/C(=C\c2ccccc2)c2ccccc2N1/N=C\c1ccccc1 .
label 0

Now consider CCOC(=O)Oc1cc2c(c(OC)c1OC)-c1ccc(SC)c(=O)cc1C(NC(=O)C(F)(F)F)CC2 (configuration not stated) .
label 1

Now consider OC(C#Cc1ccccc1)(c1ccccc1)c1ccccc1 .
label 0

Now consider COc1ccc2cc(/C=N\NC(=O)Nc3ccc([N+](=O)[O-])cc3)ccc2c1 .
label 0

Now consider COc1ccc2oc(-c3ccc(OC)c(OC)c3OC)cc(=O)c2c1 .
label 0

Now consider Oc1ccc2ccccc2c1/N=N/c1ccc(Cl)cc1 .
label 0

Now consider O=[N+]([O-])c1cccc2nc3ccccc3c(NCCO)c12 .
label 1

Data provenance: ChEMBL document CHEMBL1201862
